EC50 values by entry
# SYSTEM TESTED: hGIPR (Homo sapiens)
# ASSAY EXPLANATION: Functional cAMP activity in the presence of 1% HSA
# Format: cell-based
# PARTICULARS: read-out: cAMP Rel EC50, hGIPR
Starred links: 1 amine or outer side, 2 acyl side, 3 side chain; linkers in the order of their positions; H or OH if unused. Non-standard residues stand in square brackets, D forms with d. Groups on a side chain read outwards from the residue. No end group written: not given here. *: point of attachment. C20 diacid = O=C(O)CCCCCCCCCCCCCCCCCCC(=O)*; C18 diacid = O=C(O)CCCCCCCCCCCCCCCCC(=O)*; αMePhe(2-F) = C[C@](N)(Cc1ccccc1F)C(=O)O; γGlu = O=C(O)[C@H](CCC(=O)[*:2])N[*:1]; αMe4Pal = C[C@](N)(Cc1ccncc1)C(=O)O; αMeY = C[C@](N)(Cc1ccc(O)cc1)C(=O)O; αMeF = C[C@](N)(Cc1ccccc1)C(=O)O; 4Pal = N[C@@H](Cc1ccncc1)C(=O)O; αMeL = CC(C)C[C@](C)(N)C(=O)O; αMeS = C[C@](N)(CO)C(=O)O; Orn = NCCC[C@H](N)C(=O)O; AEEA = NCCOCCOCC(=O)O; Aib = CC(C)(N)C(=O)O

SUBSTANCE: H-Y[Aib]QGTFTSDFSK[αMeL]LDKK([AEEA-γGlu-C20 diacid])AQ[Aib]AFIEYLLAGGPSSGEPPPGEG-NH2 [Example 31]
SYSTEM TESTED: hGIPR (Homo sapiens)
UNIT SYMBOL: nM
EC50: 63.6
--
SUBSTANCE: Y[Aib]QGT[αMeF]TSD[4Pal][αMeS]I[αMeL]LD[Orn]K([γGlu-γGlu-C18 diacid])AQ[αMe4Pal]EFI[dE][αMeY]LIEGGPSSGAPPPSGGGE-NH2 [Example 1174]
SYSTEM TESTED: hGIPR (Homo sapiens)
UNIT SYMBOL: nM
EC50: 0.707
--
SUBSTANCE: H-Y[Aib]QGTFTSD[4Pal]SQ[αMeL]LD[Orn]K([Glu-γGlu-C18 diacid])AQ[αMe4Pal]AFIEYLLAGGPSSGAPPPSGSEE-NH2 [Example 1057]
SYSTEM TESTED: hGIPR (Homo sapiens)
UNIT SYMBOL: nM
EC50: 25.9
--
SUBSTANCE: H-Y[Aib]QGT[αMePhe(2-F)]TSD[4Pal][αMeS]I[αMeL]LD[Orn]K([AEEA-γGlu-C18 diacid])AQ[Aib]NFIEYLIEGGPSSGEPPPEEG-NH2 [Example 482]
SYSTEM TESTED: hGIPR (Homo sapiens)
UNIT SYMBOL: nM
EC50: 1.58
--
SUBSTANCE: H-Y[Aib]QGT[αMeF]TSD[4Pal][αMeS]I[αMeL]LD[Orn]K([γGlu-γGlu-C18 diacid])AQ[αMe4Pal]EFI[dE][αMeY]LIEGGPSSGEPPPSGGGE-NH2 [Example 1175]
SYSTEM TESTED: hGIPR (Homo sapiens)
UNIT SYMBOL: nM
EC50: 0.768
--
SUBSTANCE: H-Y[Aib]QGTFTSD[4Pal]SQ[αMeL]LDKK([Glu-Glu-γGlu-C18 diacid])AQ[αMe4Pal]AFIEYLIAGGPSSGAPPPSGE-NH2 [Example 1087]
SYSTEM TESTED: hGIPR (Homo sapiens)
UNIT SYMBOL: nM
EC50: 23.3
--
SUBSTANCE: H-Y[Aib]QGT[αMePhe(2-F)]TSD[4Pal]SI[αMeL]LD[Orn]K([AEEA-γGlu-C18 diacid])AQ[αMe4Pal][Orn]FI[dE][αMeY]LIEGGPSSGAPPPESEE-NH2 [Example 756]
SYSTEM TESTED: hGIPR (Homo sapiens)
UNIT SYMBOL: nM
EC50: 1.61
--
SUBSTANCE: H-Y[Aib]QGTFTSD[4Pal]SQ[αMeL]LDKK([AEEA-γGlu-C18 diacid])AQ[αMe4Pal]AFIE[αMe4Pal]LIE[Aib]GPSSGAPPPSGTGE-NH2 [Example 1117]
SYSTEM TESTED: hGIPR (Homo sapiens)
UNIT SYMBOL: nM
EC50: 8.31
--
SUBSTANCE: H-Y[Aib]QGTFTSDFSK[αMeL]LDKK([AEEA-γGlu-C20 diacid])AQ[Aib]AFIEYLLAGGPSSGEPPPSSE-NH2 [Example 3]
SYSTEM TESTED: hGIPR (Homo sapiens)
UNIT SYMBOL: nM
EC50: 48.1
--
SUBSTANCE: H-Y[Aib]QGT[αMePhe(2-F)]TSD[4Pal]SI[αMeL]LD[Orn]K([γGlu-γGlu-C18 diacid])AQ[αMe4Pal][Orn]FI[dE][αMeY]LIEGGPSSGEPPPSGE-NH2 [Example 682]
SYSTEM TESTED: hGIPR (Homo sapiens)
UNIT SYMBOL: nM
EC50: 0.415
--
SUBSTANCE: H-Y[Aib]QGT[αMePhe(2-F)]TSD[4Pal]SI[αMeL]LD[Orn]K([γGlu-γGlu-C18 diacid])AQ[αMe4Pal][Orn]FI[dE][αMeY]LIEGGPSSGEPPPEAE-NH2 [Example 684]
SYSTEM TESTED: hGIPR (Homo sapiens)
UNIT SYMBOL: nM
EC50: 0.436

----------
# SYSTEM TESTED: hGIPR (Homo sapiens, UniProt P48546)
# Sequence (P48546 22-466): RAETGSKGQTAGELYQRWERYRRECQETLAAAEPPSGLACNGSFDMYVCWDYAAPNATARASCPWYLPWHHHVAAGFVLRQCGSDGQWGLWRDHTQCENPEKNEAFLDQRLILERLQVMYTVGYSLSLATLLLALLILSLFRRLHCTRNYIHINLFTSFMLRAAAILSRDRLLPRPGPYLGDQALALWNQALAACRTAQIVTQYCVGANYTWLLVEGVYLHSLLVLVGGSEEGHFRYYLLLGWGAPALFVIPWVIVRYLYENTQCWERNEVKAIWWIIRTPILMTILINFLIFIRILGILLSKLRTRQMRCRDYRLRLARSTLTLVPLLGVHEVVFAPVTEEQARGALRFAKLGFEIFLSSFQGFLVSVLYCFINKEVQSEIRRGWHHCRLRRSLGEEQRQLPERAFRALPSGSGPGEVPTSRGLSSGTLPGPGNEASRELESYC
# ASSAY EXPLANATION: Functional cAMP activity in the presence of 1% HSA
# Type: cell-based
# PARTICULARS: read-out: cAMP Rel EC50, hGIPR
Starred links: 1 amine or outer side, 2 acyl side, 3 side chain; linkers in the order of their positions; H or OH if unused. Non-standard residues stand in square brackets, D forms with d. Groups on a side chain read outwards from the residue. No end group written: not given here. *: point of attachment. C20 diacid = O=C(O)CCCCCCCCCCCCCCCCCCC(=O)*; C18 diacid = O=C(O)CCCCCCCCCCCCCCCCC(=O)*; αMePhe(2-F) = C[C@](N)(Cc1ccccc1F)C(=O)O; γGlu = O=C(O)[C@H](CCC(=O)[*:2])N[*:1]; αMe4Pal = C[C@](N)(Cc1ccncc1)C(=O)O; αMeY = C[C@](N)(Cc1ccc(O)cc1)C(=O)O; 4Pal = N[C@@H](Cc1ccncc1)C(=O)O; αMeL = CC(C)C[C@](C)(N)C(=O)O; αMeS = C[C@](N)(CO)C(=O)O; Orn = NCCC[C@H](N)C(=O)O; AEEA = NCCOCCOCC(=O)O; Aib = CC(C)(N)C(=O)O
log10 of EC50 values by entry
PROPERTY LABEL: log10 of EC50 (log10 of the value in nM)

SUBSTANCE: H-Y[Aib]QGTFTSD[4Pal]S[Orn][αMeL]LD[Orn]K([γGlu-γGlu-C18 diacid])AQ[αMe4Pal]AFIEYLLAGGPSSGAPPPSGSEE-NH2 [Example 1068]
ASSAY RESULT: 1.31
//
SUBSTANCE: H-Y[Aib]QGTFTSDYSQ[αMeL]LDKK([AEEA-γGlu-C18 diacid])AQ[Aib]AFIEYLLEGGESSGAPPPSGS-NH2 [Example 362]
ASSAY RESULT: 1.59
//
SUBSTANCE: H-Y[Aib]QGTFTSDFSK[αMeL]LDKK([AEEA-γGlu-C18 diacid])AQ[Aib]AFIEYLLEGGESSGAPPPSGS-NH2 [Example 146]
ASSAY RESULT: 1.87
//
SUBSTANCE: H-Y[Aib]QGT[αMePhe(2-F)]TSD[4Pal][αMeS]I[αMeL]LD[Orn]K([γGlu-γGlu-C18 diacid])AQ[αMe4Pal]EFI[dE][αMeY]LIEGGPSSGAPPPEGTGE-NH2 [Example 764]
ASSAY RESULT: -0.19
//
SUBSTANCE: H-Y[Aib]QGT[αMePhe(2-F)]TSD[4Pal]SILLDKK([γGlu-γGlu-C18 diacid])AQ[Aib]AFIEWLEEGGPSSGAPPPSGTE-NH2 [Example 549]
ASSAY RESULT: 0.56
//
SUBSTANCE: H-Y[Aib]QGTFTSDFSI[αMeL]LDKK([AEEA-γGlu-C20 diacid])AQ[Aib]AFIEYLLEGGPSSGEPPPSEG-NH2 [Example 288]
ASSAY RESULT: 1.77
//
SUBSTANCE: H-Y[Aib]QGTFTSDFS[Orn][αMeL]LDKK([γGlu-γGlu-C18 diacid])AQ[Aib]AFIEYLLEGGPSSG[Aib]PPPGGS-NH2 [Example 771]
ASSAY RESULT: 1.65
//
SUBSTANCE: Y[Aib]QGTFTSD[4Pal]SQ[αMeL]LDKK([dE-γGlu-dE-C18 diacid])AQ[αMe4Pal]AFIEYLIE[Aib]GPSSGAPPPSGSEE-NH2 [Example 931]
ASSAY RESULT: 1.32
//
SUBSTANCE: Y[Aib]QGT[αMePhe(2-F)]TSD[4Pal]SI[αMeL]LD[Orn]K([AEEA-γGlu-C18 diacid])AQ[αMe4Pal]EFI[dE][αMeY]LIEGGPSSGAPPPSGE-NH2 [Example 614]
ASSAY RESULT: -0.22
//
SUBSTANCE: H-Y[Aib]QGT[αMePhe(2-F)]TSD[4Pal][αMeS]I[αMeL]LD[Orn]K([AEEA-γGlu-γGlu-C18 diacid])AQ[αMe4Pal]EFI[dE][αMeY]LIEGGPSSGAPPPSGE-NH2 [Example 1176]
ASSAY RESULT: -0.34
//
SUBSTANCE: H-Y[Aib]QGTFTSDYSK[αMeL]LDKK([AEEA-γGlu-C20 diacid])AQQAFVQWLIEGGPSSGEPPPSEG-NH2 [Example 315]
ASSAY RESULT: 1.93
